Measured EC50 on Beta-1 adrenergic receptor (Homo sapiens, UniProt P08588) follows.
Sequence (P08588 whole entry): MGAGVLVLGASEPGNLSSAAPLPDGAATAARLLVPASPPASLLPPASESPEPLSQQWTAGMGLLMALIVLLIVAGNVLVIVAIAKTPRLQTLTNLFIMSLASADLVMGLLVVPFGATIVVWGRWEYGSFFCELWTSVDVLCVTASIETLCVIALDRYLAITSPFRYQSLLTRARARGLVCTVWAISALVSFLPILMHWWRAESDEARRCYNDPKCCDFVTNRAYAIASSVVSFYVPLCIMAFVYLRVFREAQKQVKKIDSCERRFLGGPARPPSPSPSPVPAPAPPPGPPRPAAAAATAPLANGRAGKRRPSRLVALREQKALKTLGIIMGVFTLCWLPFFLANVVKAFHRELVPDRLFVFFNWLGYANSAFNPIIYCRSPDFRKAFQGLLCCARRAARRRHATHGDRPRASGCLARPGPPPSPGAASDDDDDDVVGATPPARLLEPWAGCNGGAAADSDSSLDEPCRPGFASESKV
Response body: numeric value in nM, unit text excluded.

Answered cases to consult:
INSERT INTO assay_data (compound, readout_number) VALUES
  ('COc1ccc(CC(C)(C)NC[C@H](O)c2cc(O)cc3c2OCC(=O)N3)cc1', 33.9),
  ('O=C1COc2c(C(O)CNCCc3ccccc3)ccc(O)c2N1 (centres undefined)', 1.91),
  ('O=C1COc2c(C(O)CNCCCc3cccc(O)c3)ccc(O)c2N1 (centres undefined)', 0.138);

// next item, EC50 requested
Task: Enter reported EC50 observed with Beta-1 adrenergic receptor (Homo sapiens, UniProt P08588) for O=C1COc2c(C(O)CNCCc3ccccc3F)ccc(O)c2N1 (centres undefined)
Result: 4.07

* * *

- experimental-target: Beta-2 adrenergic receptor (Homo sapiens, UniProt P07550)
- Sequence (P07550 whole entry): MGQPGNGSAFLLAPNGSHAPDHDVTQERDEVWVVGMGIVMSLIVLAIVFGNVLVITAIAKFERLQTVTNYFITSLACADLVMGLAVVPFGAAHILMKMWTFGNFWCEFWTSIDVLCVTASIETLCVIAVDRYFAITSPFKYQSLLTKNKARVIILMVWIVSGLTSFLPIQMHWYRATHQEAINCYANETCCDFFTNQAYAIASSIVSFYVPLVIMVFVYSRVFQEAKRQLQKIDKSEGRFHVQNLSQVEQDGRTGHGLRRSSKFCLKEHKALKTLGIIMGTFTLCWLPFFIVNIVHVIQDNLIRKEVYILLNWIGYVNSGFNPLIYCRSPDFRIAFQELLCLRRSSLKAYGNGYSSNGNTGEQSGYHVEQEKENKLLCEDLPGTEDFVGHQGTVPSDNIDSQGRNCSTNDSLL
quantity-name: pEC50
Give only the number. pEC50 is defined as minus log10 of concentration in molar units.

// below: answered compounds
INSERT INTO results (compound, readout_number) VALUES
  ('CCCCNCC(O)c1ccc(O)c2c1OCC(=O)N2 (stereo not given)', 10.59),
  ('O=C1COc2c(C(O)CNC3CC3)ccc(O)c2N1 (stereo not given)', 10.65),
  ('O=C1COc2c(C(O)CNCCCc3cccc(F)c3)ccc(O)c2N1 (stereo not given)', 11.33),
  ('O=C1COc2c(C(O)CNCCc3ccc(F)cc3)ccc(O)c2N1 (stereo not given)', 11.27);

Here is another compound to look at.
Task: If you can, please state the reported pEC50 value of O=C1COc2c(C(O)CNCCc3cccc(F)c3)ccc(O)c2N1 (stereo not given) .
Result: 10.62
